tested target: human factor XIa (Homo sapiens)
Construct: purchased Kordia
Sequence (P03951 388-625 limits assumed): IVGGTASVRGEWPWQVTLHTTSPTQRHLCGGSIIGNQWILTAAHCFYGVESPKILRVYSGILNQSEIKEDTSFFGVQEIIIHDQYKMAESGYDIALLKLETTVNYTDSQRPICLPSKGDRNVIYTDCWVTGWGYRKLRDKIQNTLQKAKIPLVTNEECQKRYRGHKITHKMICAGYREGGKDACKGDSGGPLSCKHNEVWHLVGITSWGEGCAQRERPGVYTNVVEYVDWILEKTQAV
Sequence (P03951 19-387 partner limits assumed): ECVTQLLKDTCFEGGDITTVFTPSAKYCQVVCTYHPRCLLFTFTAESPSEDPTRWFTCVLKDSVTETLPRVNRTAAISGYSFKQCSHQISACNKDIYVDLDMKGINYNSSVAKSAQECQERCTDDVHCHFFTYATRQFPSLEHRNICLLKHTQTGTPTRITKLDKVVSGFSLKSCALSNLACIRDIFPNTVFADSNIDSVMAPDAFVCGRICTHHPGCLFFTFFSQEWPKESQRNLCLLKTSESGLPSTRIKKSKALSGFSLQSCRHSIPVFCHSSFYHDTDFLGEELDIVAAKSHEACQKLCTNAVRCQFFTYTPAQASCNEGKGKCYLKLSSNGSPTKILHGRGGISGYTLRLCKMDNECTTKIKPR
assay summary: Measurement of FXIa inhibition (fluorogenic peptide substrate)
Type: biochemical
Structures can show the parent of a compound that is named as a salt.
measurement label: pIC50
Note on pIC50: it is the negative log10 of concentration, concentration in mol/L.

Challenge: Determine its reported pIC50: Cc1nc(C(=O)N[C@@H]2CCN[C@H](C)C2)ccc1-c1ccc(C[C@H](NC(=O)[C@H]2CC[C@H](CN)CC2)C(=O)Nc2ccc(-c3nn[nH]n3)cc2)cc1 [Example 18, hydrochloride]
Response given: 8.35

###

Entries and their measured pIC50 follow.
tested target: human factor XIa (Homo sapiens)
Construct: purchased Kordia
assay summary: Measurement of FXIa inhibition (fluorogenic peptide substrate)
Type: biochemical
condition context: human factor XIa from Kordia, substrate Boc-Glu(OBzl)-Ala-Arg-AMC, 30 min at 22° C.; read-out: IC50 (FXIa inhibition)
Counter-ions that a name gives are not always drawn.
# pIC50: negative log10 of molar concentration; output just the value

- molecule: "Cc1cc(C(=O)N[C@@H]2CCCNC2=O)ncc1-c1ccc(C[C@H](NC(=O)[C@H]2CC[C@H](CN)CC2)C(=O)Nc2ccc(-c3nnn[nH]3)cc2)cc1 [Example 21, hydrochloride]"
  assay value: 8.89
- molecule: "Cc1cc(C(=O)NCCCN(C)C)ncc1-c1ccc(C[C@H](NC(=O)[C@H]2CC[C@H](CN)CC2)C(=O)Nc2ccc(-c3nnn[nH]3)cc2)cc1 [Example 12, hydrochloride]"
  assay value: 8.32
- molecule: "Cc1nc(C(=O)NC2CCN(C)CC2)ccc1-c1ccc(C[C@H](NC(=O)[C@H]2CC[C@H](CN)CC2)C(=O)Nc2ccc(-c3nnn[nH]3)cc2)cc1 [Example 30, hydrochloride]"
  assay value: 8.26
- molecule: "Cc1nc(C(=O)NC2CCC(O)CC2)ccc1-c1ccc(C[C@H](NC(=O)[C@H]2CC[C@H](CN)CC2)C(=O)Nc2ccc(-c3nn[nH]n3)cc2)cc1 (stereo partly shown) [Example 22, hydrochloride]"
  assay value: 8.60
- molecule: "Cc1nc(C(=O)NC2CCC2)ccc1-c1ccc(C[C@H](NC(=O)[C@H]2CC[C@H](CN)CC2)C(=O)Nc2ccc3cn[nH]c3c2)cc1 [Example 34, hydrochloride]"
  assay value: 8.09

Challenge: State its pIC50 for this molecule: Cc1nc(C(=O)N[C@@H]2CCNC2)ccc1-c1ccc(C[C@H](NC(=O)[C@H]2CC[C@H](CN)CC2)C(=O)Nc2ccc(-c3nn[nH]n3)cc2)cc1 [Example 17, hydrochloride]
Response given: 8.30

Challenge: // fetch pIC50 given entry Cc1cc(C(=O)N[C@H]2CC[C@H](N3CCOCC3)CC2)ncc1-c1ccc(C[C@H](NC(=O)[C@H]2CC[C@H](CN)CC2)C(=O)Nc2ccc(-c3nnn[nH]3)cc2)cc1 [Example 13, hydrochloride]
Response given: 9.05

Challenge: Complete the entry with pIC50 for Cc1cc(C(=O)NC2CCNCC2)ncc1-c1ccc(C[C@H](NC(=O)[C@H]2CC[C@H](CN)CC2)C(=O)Nc2ccc(-c3nnn[nH]3)cc2)cc1 [Example 5, hydrochloride]
Response given: 8.72

Challenge: Answer with reported pIC50 of CCN(CC)C1CCC(NC(=O)c2cc(C)c(-c3ccc(C[C@H](NC(=O)[C@H]4CC[C@H](CN)CC4)C(=O)Nc4ccc(-c5nnn[nH]5)cc4)cc3)cn2)CC1 (stereo partly shown) [Example 7, hydrochloride]
Response given: 8.59

Challenge: For the molecule Cc1cc(C(=O)NC2CCNCC2F)ncc1-c1ccc(C[C@H](NC(=O)C2CCC(CN)CC2)C(=O)Nc2ccc(-c3nnn[nH]3)cc2)cc1 (stereo partly shown) [Example 8, hydrochloride] , give its measured pIC50 value.
Response given: 8.66
